- Test system: choroidal neovascularization
- assay.procedure: Choroidal neovascularization in rats (laser photocoagulation, FFA)
- Assay type: in vivo
- condition: day 7 after administration, total light spot number was 186, 0.05 μM in the vitreous chamber once a day for 1 week, BN rats
Peptide text beside a SMILES is read from it. * marks the point of attachment. X59 = O=C1C=CC(=O)N1c1cccc(CCCCCCCCC(=O)*)c1; X55 = O=C1C=CC(=O)N1c1ccccc1CCCCCCCCC(=O)*
recorded.metric: Leakage Light spot number

# compound, recorded.metric, val
records = [
    ("C[C@H](NC(=O)CNC(=O)[C@H](CCCNC(=N)N)NC(=O)CCCCCCCCc1cccc(N2C(=O)C=CC2=O)c1)C(=O)N[C@@H](CC(=O)O)C(=O)N[C@@H](CCCNC(=N)N)C(=O)N[C@@H](C)C(=O)NCC(=O)NCC(=O)NCC(=O)NCC(=O)N[C@@H](CCCNC(=N)N)C(=O)NCC(=O)N[C@@H](CC(=O)O)C(=O)O [X32] (X59-RGADRAGGGGRGD-OH)", "Leakage Light spot number", 86),
    ("C[C@H](NC(=O)CNC(=O)[C@H](CCCNC(=N)N)NC(=O)CCCCCCCCc1ccccc1N1C(=O)C=CC1=O)C(=O)N[C@@H](CC(=O)O)C(=O)N[C@@H](CCCNC(=N)N)C(=O)N[C@@H](C)C(=O)NCC(=O)NCC(=O)NCC(=O)NCC(=O)N[C@@H](CCCNC(=N)N)C(=O)NCC(=O)N[C@@H](CC(=O)O)C(=O)O [X20] (X55-RGADRAGGGGRGD-OH)", "Leakage Light spot number", 91),
]
